TESTED ON: Sodium channel alpha subunits; brain (Types I, II, III) (Homo sapiens, UniProt P35498+Q99250+Q9NY46)
Sequence (Q99250 whole entry, looked up, other chains not shown): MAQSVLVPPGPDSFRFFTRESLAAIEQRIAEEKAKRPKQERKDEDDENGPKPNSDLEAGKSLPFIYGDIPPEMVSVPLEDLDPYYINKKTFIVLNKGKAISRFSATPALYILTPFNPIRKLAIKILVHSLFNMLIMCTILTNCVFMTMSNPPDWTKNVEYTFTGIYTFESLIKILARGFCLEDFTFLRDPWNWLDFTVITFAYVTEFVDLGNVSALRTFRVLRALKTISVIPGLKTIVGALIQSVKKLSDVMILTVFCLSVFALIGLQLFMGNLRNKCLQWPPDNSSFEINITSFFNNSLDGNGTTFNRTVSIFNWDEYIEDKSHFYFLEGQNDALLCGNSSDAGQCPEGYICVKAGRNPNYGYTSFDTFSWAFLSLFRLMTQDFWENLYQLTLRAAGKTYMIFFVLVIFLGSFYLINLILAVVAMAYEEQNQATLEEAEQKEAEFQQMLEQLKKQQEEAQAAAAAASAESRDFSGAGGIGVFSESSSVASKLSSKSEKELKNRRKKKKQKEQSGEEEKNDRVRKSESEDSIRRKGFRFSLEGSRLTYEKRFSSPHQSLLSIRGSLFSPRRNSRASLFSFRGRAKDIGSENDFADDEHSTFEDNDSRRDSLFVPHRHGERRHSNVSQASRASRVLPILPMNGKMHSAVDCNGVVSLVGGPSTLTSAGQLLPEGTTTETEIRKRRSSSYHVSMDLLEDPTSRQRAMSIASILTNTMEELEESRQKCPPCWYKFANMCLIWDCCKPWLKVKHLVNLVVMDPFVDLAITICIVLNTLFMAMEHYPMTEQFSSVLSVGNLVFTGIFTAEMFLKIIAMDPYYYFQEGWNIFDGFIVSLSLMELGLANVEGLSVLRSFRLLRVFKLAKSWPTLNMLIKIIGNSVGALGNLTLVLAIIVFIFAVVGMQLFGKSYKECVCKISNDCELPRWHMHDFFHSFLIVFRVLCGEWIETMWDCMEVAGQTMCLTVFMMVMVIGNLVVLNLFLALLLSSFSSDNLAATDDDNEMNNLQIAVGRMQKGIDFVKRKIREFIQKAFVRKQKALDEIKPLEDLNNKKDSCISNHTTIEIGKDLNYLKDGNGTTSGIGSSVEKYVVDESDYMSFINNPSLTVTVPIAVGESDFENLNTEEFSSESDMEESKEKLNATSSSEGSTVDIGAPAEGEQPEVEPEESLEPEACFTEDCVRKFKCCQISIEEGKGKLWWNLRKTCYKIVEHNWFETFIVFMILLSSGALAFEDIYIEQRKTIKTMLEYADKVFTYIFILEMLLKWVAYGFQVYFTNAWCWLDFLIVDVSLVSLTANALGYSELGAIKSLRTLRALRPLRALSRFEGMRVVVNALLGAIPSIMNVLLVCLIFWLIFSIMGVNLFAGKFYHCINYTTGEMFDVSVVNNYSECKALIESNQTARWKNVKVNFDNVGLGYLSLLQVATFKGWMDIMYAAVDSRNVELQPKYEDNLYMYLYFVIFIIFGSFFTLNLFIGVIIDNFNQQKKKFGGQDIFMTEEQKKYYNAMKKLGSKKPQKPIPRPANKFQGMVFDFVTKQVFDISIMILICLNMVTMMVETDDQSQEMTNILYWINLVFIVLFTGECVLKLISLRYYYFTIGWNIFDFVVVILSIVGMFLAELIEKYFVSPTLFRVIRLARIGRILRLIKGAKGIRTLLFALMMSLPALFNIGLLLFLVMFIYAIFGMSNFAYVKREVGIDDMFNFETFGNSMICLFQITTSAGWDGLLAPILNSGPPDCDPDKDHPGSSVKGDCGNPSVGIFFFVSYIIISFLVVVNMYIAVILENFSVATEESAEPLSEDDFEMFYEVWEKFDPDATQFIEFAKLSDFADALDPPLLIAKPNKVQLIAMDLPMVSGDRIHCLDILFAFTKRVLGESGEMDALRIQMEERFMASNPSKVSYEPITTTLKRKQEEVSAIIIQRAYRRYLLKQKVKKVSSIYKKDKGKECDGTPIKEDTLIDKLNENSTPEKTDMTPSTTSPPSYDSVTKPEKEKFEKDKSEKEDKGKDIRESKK
Sequence (Q9NY46 whole entry, looked up, other chains not shown): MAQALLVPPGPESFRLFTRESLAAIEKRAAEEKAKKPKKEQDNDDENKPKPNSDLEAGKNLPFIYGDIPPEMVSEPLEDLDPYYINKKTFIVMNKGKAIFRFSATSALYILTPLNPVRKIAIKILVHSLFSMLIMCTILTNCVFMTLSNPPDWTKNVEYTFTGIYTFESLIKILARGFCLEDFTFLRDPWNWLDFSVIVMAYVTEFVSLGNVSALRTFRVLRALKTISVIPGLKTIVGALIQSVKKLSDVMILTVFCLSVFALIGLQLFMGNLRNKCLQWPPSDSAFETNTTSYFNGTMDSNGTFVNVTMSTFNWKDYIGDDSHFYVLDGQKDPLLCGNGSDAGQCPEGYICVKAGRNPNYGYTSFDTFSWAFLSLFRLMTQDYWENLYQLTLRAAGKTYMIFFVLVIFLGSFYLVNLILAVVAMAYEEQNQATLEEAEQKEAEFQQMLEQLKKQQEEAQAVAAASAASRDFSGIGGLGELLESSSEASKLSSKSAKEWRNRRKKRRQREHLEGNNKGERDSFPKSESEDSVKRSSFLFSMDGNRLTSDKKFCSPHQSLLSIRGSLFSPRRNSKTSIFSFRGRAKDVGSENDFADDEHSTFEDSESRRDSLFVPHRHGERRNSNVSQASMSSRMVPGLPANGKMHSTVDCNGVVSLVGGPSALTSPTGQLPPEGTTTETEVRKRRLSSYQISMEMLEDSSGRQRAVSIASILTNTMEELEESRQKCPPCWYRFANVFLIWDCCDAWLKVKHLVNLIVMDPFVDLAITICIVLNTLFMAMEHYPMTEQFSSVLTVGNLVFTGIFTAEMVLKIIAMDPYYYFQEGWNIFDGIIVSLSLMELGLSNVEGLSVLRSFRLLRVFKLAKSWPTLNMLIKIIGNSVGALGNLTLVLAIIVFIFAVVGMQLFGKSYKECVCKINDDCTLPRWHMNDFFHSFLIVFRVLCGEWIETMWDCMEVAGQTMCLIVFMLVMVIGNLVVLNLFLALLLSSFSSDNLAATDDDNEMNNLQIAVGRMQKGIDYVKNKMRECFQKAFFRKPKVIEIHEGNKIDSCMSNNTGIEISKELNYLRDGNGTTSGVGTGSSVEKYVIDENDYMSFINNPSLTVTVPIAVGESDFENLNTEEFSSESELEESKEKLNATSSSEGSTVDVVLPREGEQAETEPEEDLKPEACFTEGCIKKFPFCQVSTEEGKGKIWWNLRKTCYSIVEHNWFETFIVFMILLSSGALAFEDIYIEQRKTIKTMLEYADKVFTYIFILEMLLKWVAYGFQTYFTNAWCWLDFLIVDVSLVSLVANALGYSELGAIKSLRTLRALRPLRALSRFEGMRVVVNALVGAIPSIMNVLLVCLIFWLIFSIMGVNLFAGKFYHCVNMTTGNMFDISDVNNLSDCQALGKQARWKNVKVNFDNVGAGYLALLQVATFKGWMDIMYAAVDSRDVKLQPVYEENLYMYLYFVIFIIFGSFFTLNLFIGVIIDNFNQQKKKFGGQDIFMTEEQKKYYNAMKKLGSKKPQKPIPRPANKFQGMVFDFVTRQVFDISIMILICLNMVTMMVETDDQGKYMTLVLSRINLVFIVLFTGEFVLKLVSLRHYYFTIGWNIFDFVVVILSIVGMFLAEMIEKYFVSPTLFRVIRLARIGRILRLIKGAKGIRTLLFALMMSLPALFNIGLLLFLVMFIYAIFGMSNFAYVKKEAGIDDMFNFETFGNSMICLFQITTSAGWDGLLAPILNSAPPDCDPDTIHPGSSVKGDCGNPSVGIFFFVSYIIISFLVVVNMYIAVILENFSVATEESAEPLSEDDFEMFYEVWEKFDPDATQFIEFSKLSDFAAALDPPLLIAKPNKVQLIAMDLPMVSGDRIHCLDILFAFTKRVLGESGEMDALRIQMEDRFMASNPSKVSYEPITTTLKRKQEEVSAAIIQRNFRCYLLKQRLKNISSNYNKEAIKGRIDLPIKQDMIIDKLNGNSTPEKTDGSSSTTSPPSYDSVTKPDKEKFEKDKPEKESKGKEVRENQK
COND: Cavia porcellus; Cerebral cortex; at 10 µM
Values of inhibition greater than or equal to 20% map to Y; values below map to N.

MOLECULE: CN(C)CCCN1c2ccccc2[S+]([O-])c2ccc(Cl)cc21 (configuration not stated)
CATEGORY LABEL: N
//
MOLECULE: CCN(CC)CCCN1C(=O)CC2(CCCc3ccccc32)C1=O (racemic; form 2)
CATEGORY LABEL: Y
//
MOLECULE: CC(CNC1CCCCC1)OC(=O)c1ccccc1 (configuration not stated) [HEXYLCAINE]
CATEGORY LABEL: Y
//
MOLECULE: CC(C)(C)NC[C@H](O)COc1nsnc1N1CCOCC1
CATEGORY LABEL: N
//
MOLECULE: CN(C)CCCN1c2ccccc2Sc2ccc(Cl)cc21 [CHLORPROMAZINE]
CATEGORY LABEL: Y
//
MOLECULE: CCCCOC(=O)c1ccc(N)cc1
CATEGORY LABEL: N
//
MOLECULE: O=C1NC(=O)C(c2ccccc2)(c2ccccc2)N1
CATEGORY LABEL: N

Value source: ChEMBL document CHEMBL1122963
